- system.under.test: UniProt Q9GZV3
- Sequence (Q9GZV3 whole entry): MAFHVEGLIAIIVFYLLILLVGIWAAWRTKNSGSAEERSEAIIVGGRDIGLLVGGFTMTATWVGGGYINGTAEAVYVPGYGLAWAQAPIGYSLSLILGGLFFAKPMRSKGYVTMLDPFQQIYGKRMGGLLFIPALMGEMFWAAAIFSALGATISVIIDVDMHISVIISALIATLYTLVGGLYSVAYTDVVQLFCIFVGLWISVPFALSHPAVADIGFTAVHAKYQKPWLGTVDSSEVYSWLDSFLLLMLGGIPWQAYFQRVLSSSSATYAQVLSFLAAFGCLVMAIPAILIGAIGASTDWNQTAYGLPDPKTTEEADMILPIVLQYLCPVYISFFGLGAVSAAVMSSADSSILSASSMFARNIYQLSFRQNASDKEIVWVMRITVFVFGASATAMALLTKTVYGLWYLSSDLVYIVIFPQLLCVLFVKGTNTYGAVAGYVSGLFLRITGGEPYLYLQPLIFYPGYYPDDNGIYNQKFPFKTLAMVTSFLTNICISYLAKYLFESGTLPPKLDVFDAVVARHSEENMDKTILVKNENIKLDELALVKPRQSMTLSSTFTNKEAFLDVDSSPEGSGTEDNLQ
- measurement.notes: CHT inhibitors, dose response, cell-based, 5-point CRC, membrane potential dye (AID 504840)
- Type: functional
The source made the active and inactive calls. How the calls were made is not given here.
quantity.kind: IC50

For orientation, consider the following solved cases.
O=C(NC1CCCCC1)C(c1ccc2ncccc2c1)N(Cc1ccc2c(c1)OCO2)C(=O)c1ccc2c(c1)OCCO2 (stereo not given) = 15.1 µM (active)
CCc1ccc(C(C)N=C(S)NC2CCCCC2)cc1 (stereo not given) = 7.86 µM (active)
O=C(Nc1ccccc1Br)C1CCCN1S(=O)(=O)c1cccc2nsnc12 (stereo not given) = 13.8 µM (active)
COc1ccc(OC)c(/C=C2\SC(=S)N(NS(=O)(=O)c3ccccc3)C2=O)c1 = 8.71 µM (active)

// below: IC50 requested for another molecule
Task: Return IC50 for the following molecule: CN(Cc1cccs1)c1ncnc2sccc12
Result: 4.57 µM (active)

----------
- system.under.test: UniProt:P29990
- Sequence (P29990 2492-3391 limits assumed): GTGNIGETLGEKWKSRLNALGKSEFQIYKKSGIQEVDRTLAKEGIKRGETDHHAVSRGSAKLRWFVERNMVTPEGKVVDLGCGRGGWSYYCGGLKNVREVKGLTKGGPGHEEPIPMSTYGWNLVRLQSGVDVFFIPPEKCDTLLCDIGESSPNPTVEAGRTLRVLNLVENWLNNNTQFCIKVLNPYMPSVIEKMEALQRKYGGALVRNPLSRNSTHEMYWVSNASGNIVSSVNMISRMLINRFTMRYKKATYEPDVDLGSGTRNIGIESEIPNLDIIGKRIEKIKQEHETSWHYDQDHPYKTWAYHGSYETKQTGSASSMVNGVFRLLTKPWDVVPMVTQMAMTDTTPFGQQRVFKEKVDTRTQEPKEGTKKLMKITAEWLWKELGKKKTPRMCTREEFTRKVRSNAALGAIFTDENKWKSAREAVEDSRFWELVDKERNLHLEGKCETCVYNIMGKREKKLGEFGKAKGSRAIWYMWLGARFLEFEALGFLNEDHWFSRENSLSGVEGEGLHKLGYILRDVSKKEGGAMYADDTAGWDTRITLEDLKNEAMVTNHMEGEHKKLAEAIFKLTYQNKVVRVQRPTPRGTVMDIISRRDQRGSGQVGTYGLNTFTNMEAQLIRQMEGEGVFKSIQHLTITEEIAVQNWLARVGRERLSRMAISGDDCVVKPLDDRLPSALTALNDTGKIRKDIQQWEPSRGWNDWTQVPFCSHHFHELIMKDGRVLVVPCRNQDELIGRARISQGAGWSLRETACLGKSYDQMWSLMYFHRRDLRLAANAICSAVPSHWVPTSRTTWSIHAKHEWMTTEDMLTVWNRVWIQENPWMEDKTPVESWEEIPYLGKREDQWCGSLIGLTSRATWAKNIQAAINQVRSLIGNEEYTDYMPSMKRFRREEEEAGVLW
- measurement.notes: Dengue-2 NS5 methyltransferase inhibitors, primary screen, biochemical, confirmation dose response (AID 588689)
- Format: functional
The source made the active and inactive calls. The rule behind the calls is not given here.
quantity.kind: IC50

Guide cases for IC50, answers given:
Oc1cc2c(cc1O)[C@H]1c3ccc(O)c(O)c3OC[C@@]1(O)C2 = 22.5 µM (active)
O=C(CCc1ccc(S(=O)(=O)N2CCOCC2)cc1)N/N=C/c1ccc(O)c(O)c1O = 51.3 µM (active)
Nc1ccc(S(=O)(=O)Nc2nccs2)cc1N=Nc1ccccc1[N+](=O)[O-] = 64.7 µM (active)
CC1(C)CC(=O)C(C(C2=C(O)CC(C)(C)CC2=O)c2ccc(Br)s2)C(=O)C1 (stereo not given) = 21.5 µM (active)
COc1ccc(Br)cc1/C=C/C(=O)NC(=S)Nc1ccc(Cl)c(C(=O)O)c1 = 46.9 µM (active)

Task: Supply measured IC50 of COc1ccc(S(=O)(=O)Nc2nc3ccccc3nc2Nc2cccc(C(=O)O)c2)cc1 in your reply.
Result: 34.5 µM (active)

Task: Dear colleague, please send me the reported IC50 for O=C(O)c1ccc2c(c1)C(=O)/C(=C\c1ccco1)C2=O when you can.
Result: 12.3 µM (active)

Task: Provide only the value of recorded IC50 for Cc1ccc2c(c1Cl)NC(C(=O)O)C1CC(Sc3ccccc3[N+](=O)[O-])C(Cl)C21 (stereo not given)
Result: 76.9 µM (active)

Task: Fill in IC50 for record Cc1ccc([C@@H]2CC=C(C(=O)O)[C@H](c3ccc(Br)cc3)N2S(=O)(=O)c2ccccc2C)cc1
Result: 34 µM (active)

Task: // Input: O=C(O)CN1C(=O)/C(=C\c2cc(Br)ccc2OCc2ccc([N+](=O)[O-])cc2)SC1=S . Output its IC50 only.
Result: 30.3 µM (active)
